target.under.test: D(2) dopamine receptor (Homo sapiens, UniProt P14416)
Sequence (P14416 whole entry): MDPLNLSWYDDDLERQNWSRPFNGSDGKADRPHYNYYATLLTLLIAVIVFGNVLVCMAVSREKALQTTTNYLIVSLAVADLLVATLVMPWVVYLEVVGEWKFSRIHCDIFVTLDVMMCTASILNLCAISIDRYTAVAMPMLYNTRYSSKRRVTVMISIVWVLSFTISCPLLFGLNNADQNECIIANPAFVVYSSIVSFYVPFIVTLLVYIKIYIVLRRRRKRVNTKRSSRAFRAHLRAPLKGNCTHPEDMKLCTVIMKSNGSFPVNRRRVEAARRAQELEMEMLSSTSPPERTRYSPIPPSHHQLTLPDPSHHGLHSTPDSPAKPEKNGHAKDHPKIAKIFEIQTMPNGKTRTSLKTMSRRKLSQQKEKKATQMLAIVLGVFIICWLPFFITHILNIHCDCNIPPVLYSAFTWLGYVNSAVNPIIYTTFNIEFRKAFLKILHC
experimental.details: Binding affinity towards human dopamine receptor D2 expressed in CHO cells using the radioligand [125I]iodosulpiride
pKi listing for selected compounds.
# pKi = -log10(concentration in molar units)

O=C(/C=C/c1ccccc1)N(Cc1ccc(-c2ccc(CNCCc3ccccc3)cc2)cc1)Cc1cccnc1	5.90
CN(C)CCN(Cc1ccc(-c2ccc(CNCCc3ccccc3)cc2)cc1)C(=O)/C=C/c1ccccc1	6.10

Q: Request body: readout pKi, system D(2) dopamine receptor (Homo sapiens, UniProt P14416), query CN(C)CCN(Cc1ccc(-c2ccc(CNCCc3ccccc3)cc2)cc1)C(=O)CCC1CCCC1 . Return the value.
A: 5.90

Measured values drawn from ChEMBL document CHEMBL1142810 for this set.
